The measured values listed here are drawn from the PETadex activity labels (doi:10.1016/s0014-5793(99)00813-3).

substrate: p-NP-C4; details: pH 7.1; 25 °C
measured.property: kcat/Km (M⁻¹ s⁻¹)
Please state the figure in M⁻¹ s⁻¹; there is no need to write the unit.

These recorded examples may help you get a feel for the data.
1) unnamed (protein) MKPENKLPVLDLISAEMKTVVNTLQPDLPPWPATGTIAEQRQYYTLERRFWNAGAPEMATRAYMVPTKYGQVETRLFCPQPDSPATLFYLHGGGFILGNLDTHDRIMRLLASYSQCTVIGIDYTLSPEARFPQAIEEIVAACCYFHQQAEDYQINMSRIGFAGDSAAAMLALASALWLRDKQIDCGKVAGVLLWYGLYGLRDSVTRRLLGGVWDGLTQQDLQMYEEAYLSNDADRESPYYCLFNNDLTREVPPCFIAGAEFDPLLDDSRLLYQTLAAHQQPCEFKLYPGTLHAFLHYSRMMKTADEALRDGAQFFTAQL	24700
2) unnamed (protein) MKPENKLPVLDLISAEMKTVVNTLQPDLPPWPATGTIAEQRQYYTLERRFWNAGAPEMATRAYMVPTKYGQVETRLFCPQPDSPATLFYLHGGGFILGNLDTHDRIMRLLASYSQCTVIGIDYTLSPQARFPQAIEEIVAACCYFHQQAEDYQINMSRIGFAGDSAGAMLALASALWLRDKQIDCGKVAGVLLWYGLYGLRDSVTRRLLGGVWDGLTQQDLQMYEEAYLSNDADRESPYYCLFNNDLTREVPPCFIAGAEFDPLLDDSRLLYQTLAAHQQPCEFKLYPGTLHAFLHYSRMMKTADEALRDGAQFFTAQL	21100

What does the data say about its kcat/Km? Entry: unnamed (protein) MKPENKLPVLDLISAEMKTVVNTLQPDLPPWPATGTIAEQRQYYTLERRFWNAGAPEMATRAYMVPTKYGQVETRLFCPQPDSPATLFYLHGGGFILGNLDTHDRIMRLLASYSQCTVIGIDYTLSPEARFPQAIEEIVAACCYFHQQAEDYQINMSRIGFAGDSAGAMLALASALWLRDKQIDCGKVAGVLLWYGLYGLRDSVTRRLLGGVWDGLTQQDLQMYEEAYLSNDADRESPYYCLFNNDLTREVPPCFIAGAEFDPLLDDSRLLYQTLAAHQQPCEFKLYPGTLHAFLHYSRMMKTADEALRDGAQFFTAQL
61800
